B1: ATL3 (parent)
chain: YGLQGGMAFLDKRLQVKEHQHEEI

Variants of: B1
METHOD: protein stability index of a GFP-peptide fusion (GPS, HEK-293T) (PSI 1-6); higher = more stable;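 further: lentivirally expressed fusions sorted by FACS into six bins by GFP to DsRed ratio, PSI derived from sequencing read proportions per bin multiplied by bin number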
TEST PARAMETERS: c terminus: a fixed tail appended
yes (1) means recorded protein stability index is 3 or above; no (0) means it is below 3.

{"columns": ["ITEM SEQUENCE", "LABEL CLASS"],
 "data": [
  ["YGLQGGMAFLDKRLQVKEHQSEEI [H21S]", "yes (1)"],
  ["YGLQGGMAFLDKRLDVKEHQHEEI [Q15D]", "no (0)"],
  ["YGLQGGMAFLDKRLQVKEHQHEEE [I24E]", "no (0)"],
  ["YGLQAGMAFLDKRLQVKEHQHEEI [G5A]", "no (0)"],
  ["YGLQGGMAFLDKRLQVKEQQHEEI [H19Q]", "no (0)"],
  ["YGLQGGMAFLDKRLQVDEHQHEEI [K17D]", "no (0)"],
  ["YGLQGGMAFLIKRLQVKEHQHEEI [D11I]", "no (0)"],
  ["YGLQGGMAFLDKRLQVKQHQHEEI [E18Q]", "no (0)"],
  ["YGLQGGNAFLDKRLQVKEHQHEEI [M7N]", "no (0)"],
  ["YYLQGGMAFLDKRLQVKEHQHEEI [G2Y]", "no (0)"],
  ["MGLQGGMAFLDKRLQVKEHQHEEI [Y1M]", "yes (1)"],
  ["YGLQGGMAFPDKRLQVKEHQHEEI [L10P]", "yes (1)"],
  ["YGLQGGMAFLDKRLQVKTHQHEEI [E18T]", "no (0)"],
  ["YGLQGGMCFLDKRLQVKEHQHEEI [A8C]", "no (0)"],
  ["YGLQGGMAFLDKRLQVKEHQHEII [E23I]", "no (0)"],
  ["YGLQGGMNFLDKRLQVKEHQHEEI [A8N]", "no (0)"],
  ["DGLQGGMAFLDKRLQVKEHQHEEI [Y1D]", "yes (1)"],
  ["YGLQGGMAFLDKRLQGKEHQHEEI [V16G]", "no (0)"],
  ["YGLQGGMAFLDKRHQVKEHQHEEI [L14H]", "no (0)"],
  ["YGLQGGMAFLDKRLQVKEHHHEEI [Q20H]", "yes (1)"],
  ["YGLEGGMAFLDKRLQVKEHQHEEI [Q4E]", "no (0)"]
]}
